- assayed.target: Hexose transporter 1 (Plasmodium falciparum)
- protocol.notes: ST_JUDE_LEISH: Cytotoxicity at 2uM final concentration against transgenic Leishmania Mexicana promastigotes LmPfHT that are glucose transport deficient and complemented with the Plasmodium falciparum hexose transporter. Activity is measured by DNA content using SYBR green in vitro
- Type: functional
Kindly state inhibition for each of the entries shown.
Output spec: scalar in %, unitless text.

Consider the compound shown here: O=C(NCC1CC1)C1CCN(C(c2ccccc2)c2cc(F)cc(F)c2)CC1 (stereo not drawn) What is its recorded inhibition? 3.92

Repeat for the following compound: O=C(c1ccc(Cl)cc1)N1CCCC(C(=O)N(Cc2nnc(-c3ccccc3Cl)o2)C2CC2)C1 (stereo not drawn) 1.56

Repeat for the following compound: Cn1nc(C(F)(F)F)c(-c2ccc(F)cc2)c1NC(=O)Nc1ccc(F)cc1 4.67

Repeat for the following compound: COc1ccc2nccc([C@@H](O)CN3CCC(NCc4nc5c(cc4F)SCC(=O)N5)C(F)C3)c2c1 (stereo partly drawn) 3.21

Repeat for the following compound: CN(C(=O)C1(c2ccc(Cl)cc2)CC1)C1CCN(CCCCCNC(=O)/C=C/c2ccc(Cl)c(Cl)c2)CC1 -0.37

Repeat for the following compound: COc1ccc(CNC2CCN(C)CC2)cc1-c1ccc(S(=O)(=O)NCCc2ccccn2)s1 -0.03

Repeat for the following compound: NC(=O)c1ccc(C(=O)Nc2cccc(-c3ccc(-c4nc5cc(C(F)(F)F)ccc5[nH]4)cc3)c2)cc1 -0.2

Repeat for the following compound: c1ccc(COc2ccnc(NCCCOc3cccc(CN4CCCCC4)c3)c2)cc1 1.04

Repeat for the following compound: CC(C)N1CCN(c2ccc(OCCCCN3CCN(c4cccc(Cl)c4Cl)CC3)c(C(F)(F)F)c2)CC1 -1.01

Repeat for the following compound: CN1CCC(C(=O)Nc2cccc(-c3cccc(-c4nc5cc(F)ccc5[nH]4)c3)c2)CC1 5.02

Repeat for the following compound: c1ccc2c(c1)cc(CNCCCN1CCN(CCCNCc3cc4ccccc4c4ccccc34)CC1)c1ccccc12 0.84

Repeat for the following compound: Nc1ncc(-c2ccc(Br)cc2)c(N)n1 -0.78

Repeat for the following compound: CN1CCC(Oc2ccc(CN3CC[C@H](NC(=O)c4ccc(F)c(F)c4)C3)c3ccccc23)C1 (stereo partly drawn) 1

Repeat for the following compound: Cc1cc(Nc2nc(NCc3cccnc3)nc3ccccc23)n[nH]1 10.4

Repeat for the following compound: Cc1ccc(S(=O)(=O)N(CCCNCc2cccc(O)c2)c2ccccc2)cc1 6.1

Repeat for the following compound: CN(CCC(CCN1CCC(c2c[nH]c3ccccc23)CC1)c1ccccc1)C(=O)Nc1ccc(Cl)c(Cl)c1 (stereo not drawn) 0.21

Repeat for the following compound: COC(=O)c1ccc(CN2CCC(N(Cc3cccc(Oc4ccccc4)c3)S(=O)(=O)c3ccc(NC(C)=O)cc3)CC2)cc1 0.78

Repeat for the following compound: C=C(C)C1CC=C(CN2CCC(N3CCc4cc(NC(=O)c5cc(C)on5)ccc43)C2)CC1 (stereo not drawn) 4.39

Repeat for the following compound: COc1ccc(-c2csc3ncnc(Cl)c23)cc1OC 3.53

Repeat for the following compound: N=C(N)Nc1nc(-c2cccc(NC(=O)NCC(c3ccccc3)c3ccccc3)c2)cs1 2.14

Repeat for the following compound: CCCC(C)n1ccc2c3c(N)nc(N)nc3ccc21 (stereo not drawn) 56.9

Repeat for the following compound: O=C(CN1CCC2(CCC1=O)CC(=O)c1ccccc1O2)NCCN1CCOCC1 (stereo not drawn) 7.44

Repeat for the following compound: COc1cc2nc(NCCc3ccccc3)nc(NCc3cc(C)no3)c2cc1OC 4.61

Repeat for the following compound: Cc1ccc(C(O)CNc2ccnc(Nc3cccc(-c4csc(C)n4)c3)n2)cc1 (stereo not drawn) -1.05

Repeat for the following compound: COc1cccc(CNc2ncc(-c3ccsc3)c(-c3nccs3)n2)c1 0.89

Repeat for the following compound: CCCCNCc1ccc(-c2nc(CN(CCCn3ccnc3)C(=O)NC3CC3c3ccccc3)cs2)cc1 (stereo not drawn) 3.79

Repeat for the following compound: CS(=O)(=O)c1ccc(CCNCc2ccc(-c3ccc(CN(C(=O)C4CC(=O)c5ccccc54)C4Cc5ccccc5C4)cc3)nc2)cc1 (stereo not drawn) -0.58

Repeat for the following compound: CCCOc1ccccc1C(=O)Nc1nonc1-c1ccc(OCC)c(OCC)c1 0.51

Repeat for the following compound: CC(CN1CCN(C)CC1)C(=O)Nc1ccc(-c2ccc(-c3nc4cc(C(F)(F)F)ccc4[nH]3)cc2)cc1 (stereo not drawn) 4.86

Repeat for the following compound: Fc1ccc2[nH]c(-c3ccc(-c4ccc(CNCC5CCCO5)cc4)cc3)nc2c1 (stereo not drawn) 11.2

Repeat for the following compound: CC(=O)Nc1nc(C(=O)Nc2ccc(-c3cccc(-c4nc5cccc(C)c5[nH]4)c3)cc2)cs1 9.26

Repeat for the following compound: O=C(/C=C/c1cccc(Cl)c1)Nc1ccc2nc(CN3CCCC3)ccc2c1 5.45

Repeat for the following compound: CC(O)C1CCCCN1C(=O)c1cccc(-c2ccc(-c3nc4cc(F)ccc4[nH]3)cc2)c1 (stereo not drawn) 5.12

Repeat for the following compound: Cc1ccc(OCC2CCN(c3ncc(C(=O)NCCCN4CCCC4=O)cc3Cl)CC2)cc1 -1.22

Repeat for the following compound: OC1CCN(c2cc(-c3ccccn3)nc(-c3ccccn3)n2)CC1 2.02

Repeat for the following compound: Cc1cc(N2CCCC2)nc(NC(=N)Nc2cccc(C(F)(F)F)c2)n1 7.28

Repeat for the following compound: CCn1c(C2CCN(CCC3CCN(C(=O)/C=C/c4ccc(Cl)c(Cl)c4)CC3)CC2)nc2ccccc21 1.31

Repeat for the following compound: CCC(C)NS(=O)(=O)c1ccc2nc(Nc3ccc(C)c(Cl)c3)n(C(C)C(C)C)c2c1 (stereo not drawn) 2.08
